Provenance of the data: PubChem BioAssay (NCI)

System: SF-295 CNS
test_protocol: NCI-60 one-dose screen, 48 h (100 = growth as untreated, 0 = no growth, -100 = all killed)
test_context: 10 µM unless noted
About 83,000 compounds went through this panel and 20% of them were active in at least one assay; those are over-represented in the sample as a whole.
Catalogue of compounds with associated growth
Numeric answer only, unit % assumed.

{"columns": ["compound", "tested_on", "value"],
 "data": [
  ["Cn1c(-c2c(N)n(Cc3cccnc3)c3nc(C#N)c(C#N)nc23)nc2ccccc21", "SF-295 CNS", 110],
  ["CC1(C)CC[C@]2(C(=O)N3CCOCC3)CC[C@]3(C)C(=CC[C@@H]4[C@@]5(C)CC[C@H](OC(=O)c6cccnc6)C(C)(C)[C@@H]5CC[C@]43C)[C@@H]2C1", "SF-295 CNS", 51.2],
  ["COc1ccc(NC(=O)CSc2nc(C)c(C(C)=O)n2-c2ccc(Cl)cc2)cc1", "SF-295 CNS", 93.3],
  ["NC(N)=NN=C(c1ccccc1)c1ccccc1", "SF-295 CNS", 43],
  ["O=c1c2cc(F)ccc2sc2c(NCCCN3CCCC3)nc3ccccc3c12", "SF-295 CNS", 55.1],
  ["CC1(c2ccccc2)NC(=O)N(NC(=O)CSc2nc(-c3cccs3)nc3ccccc23)C1=O (stereo unspecified)", "SF-295 CNS", 99.3]
]}

Assign growth to the following record: `CCn1c(C)nc2cc(C(N)=O)ccc21`
238

Return growth (reported value) for this compound: `COc1ccc(OC)c(-c2c(C#N)c(-c3ccc(Cl)cc3)nc3c2c(-c2ccccc2)nn3-c2ccccc2)c1`
109

Kindly indicate its recorded growth. Item: `O=[N+]([O-])c1ccc(OCCO)cc1`
105

Let me know recorded growth for COc1ccc(/C=N/C2=C(C#N)C(c3ccc(OC)cc3)c3ccc4ccccc4c3O2)cc1 (stereo unspecified) , thanks.
88.6

Please report growth for the following compound: `O=c1[nH][n+](-c2ccc(Cl)cc2)no1`
34.5

Could you please provide reported growth for COCCc1ccc(OCC(O)CNC(C)C)cc1 (stereo unspecified) ? Thanks!
101
